Data origin: patent US11358947B2

Recorded pIC50 by entry
- assay target: TMEM16A (Homo sapiens, UniProt Q5XXA6)
- Sequence (Q5XXA6 1-986): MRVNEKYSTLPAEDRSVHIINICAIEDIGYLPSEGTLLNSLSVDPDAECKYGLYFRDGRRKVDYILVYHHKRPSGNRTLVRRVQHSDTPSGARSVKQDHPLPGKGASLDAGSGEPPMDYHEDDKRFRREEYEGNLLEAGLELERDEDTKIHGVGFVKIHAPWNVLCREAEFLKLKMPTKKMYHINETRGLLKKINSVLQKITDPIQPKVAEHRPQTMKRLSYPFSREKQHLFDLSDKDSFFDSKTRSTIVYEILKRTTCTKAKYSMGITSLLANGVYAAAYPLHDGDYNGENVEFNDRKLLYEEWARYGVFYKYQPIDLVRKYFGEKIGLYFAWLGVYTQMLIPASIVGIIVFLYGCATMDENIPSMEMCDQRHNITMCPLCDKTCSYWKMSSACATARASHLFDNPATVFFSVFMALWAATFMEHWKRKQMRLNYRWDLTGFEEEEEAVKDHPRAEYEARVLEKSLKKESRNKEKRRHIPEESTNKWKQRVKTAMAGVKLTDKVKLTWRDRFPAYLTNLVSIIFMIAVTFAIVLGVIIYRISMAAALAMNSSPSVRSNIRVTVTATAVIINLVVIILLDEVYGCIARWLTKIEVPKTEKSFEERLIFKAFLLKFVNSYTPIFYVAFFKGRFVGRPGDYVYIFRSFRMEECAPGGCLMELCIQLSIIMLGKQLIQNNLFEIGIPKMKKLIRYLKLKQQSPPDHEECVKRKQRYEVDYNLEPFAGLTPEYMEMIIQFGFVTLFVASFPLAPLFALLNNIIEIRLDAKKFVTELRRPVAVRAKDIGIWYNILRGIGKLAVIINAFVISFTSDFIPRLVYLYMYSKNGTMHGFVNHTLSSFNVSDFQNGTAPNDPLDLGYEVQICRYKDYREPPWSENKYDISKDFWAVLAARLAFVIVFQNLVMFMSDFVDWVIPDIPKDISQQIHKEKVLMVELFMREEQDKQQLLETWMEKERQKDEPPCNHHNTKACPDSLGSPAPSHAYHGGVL
- method: Short-circuit current assay in TMEM16A-expressing FRT cells
- Type: cell-based
Entry type: numeric. Quantity: pIC50, the -log10 of concentration in molar units.

Observe how each entry below is paired with its result.
[[record]]
entry_smiles = "Cc1ccccc1NC(=O)c1c(NC(=O)C(F)(F)I)sc2c1CCCCC2"
assay_target = "TMEM16A (Homo sapiens, UniProt Q5XXA6)"
test_result = 6.14

[[record]]
entry_smiles = "Cc1ccccc1NC(=O)c1c(NC(=O)C(F)(F)Cl)sc2c1CCCCC2"
assay_target = "TMEM16A (Homo sapiens, UniProt Q5XXA6)"
test_result = 6.64

[[record]]
entry_smiles = "Cc1ccccc1NC(=O)c1c(NC(=O)C(F)(F)F)sc2c1CCCCC2"
assay_target = "TMEM16A (Homo sapiens, UniProt Q5XXA6)"
test_result = 6.59


Below: the item to evaluate.
Look up pIC50 for this compound: `Cc1ccccc1NC(=O)c1c(NC(=O)C(F)(F)Br)sc2c1CCCCC2`
7.52
